Biological target: human Factor XIa (Homo sapiens (Human), UniProt P03951)
Sequence (P03951 388-625): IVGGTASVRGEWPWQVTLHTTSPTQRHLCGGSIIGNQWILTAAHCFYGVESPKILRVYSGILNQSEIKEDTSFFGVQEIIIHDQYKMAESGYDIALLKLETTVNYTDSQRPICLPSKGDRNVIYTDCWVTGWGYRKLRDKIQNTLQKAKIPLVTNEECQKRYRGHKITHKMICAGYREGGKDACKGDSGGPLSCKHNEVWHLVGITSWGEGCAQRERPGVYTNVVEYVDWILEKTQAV
Sequence (P03951 19-387 partner): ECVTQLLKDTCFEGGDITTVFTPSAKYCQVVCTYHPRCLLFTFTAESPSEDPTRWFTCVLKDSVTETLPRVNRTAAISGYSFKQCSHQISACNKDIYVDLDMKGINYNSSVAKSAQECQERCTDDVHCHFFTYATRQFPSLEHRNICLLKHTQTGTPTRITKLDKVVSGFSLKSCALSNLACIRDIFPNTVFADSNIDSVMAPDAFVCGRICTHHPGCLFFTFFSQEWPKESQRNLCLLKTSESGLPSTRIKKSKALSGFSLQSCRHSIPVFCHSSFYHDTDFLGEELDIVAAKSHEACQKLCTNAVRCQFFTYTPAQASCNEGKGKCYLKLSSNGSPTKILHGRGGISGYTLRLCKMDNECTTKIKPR
Assay: Factor XIa Assay
Assay type: biochemical
Details: purified human Factor XIa 40 pM, Z-Gly-Pro-Arg-AFC 100 μM, pH 7.4; read-out: FXIa Ki
ENDPOINT NAME: pKi
Answers are plain numbers, as −log10 of the molar value.

Worked examples follow.
{"COMPOUND": "COC(=O)Nc1ccc(C(=O)N[C@@H](CC2CCCCC2)C(=O)N2CCC[C@@]3(C2)OC(=O)Nc2ccc(Cl)cc23)cc1 [Example 72]", "ENDPOINT NAME": "pKi", "TEST RESULT": 8.45}
{"COMPOUND": "COC(=O)Nc1ccc(C(=O)N[C@@H](CO)C(=O)N2CCC[C@@]3(C2)OC(=O)Nc2ccc(Cl)cc23)cc1 [Example 38]", "ENDPOINT NAME": "pKi", "TEST RESULT": 7.30}

Next up:
According to the records, this compound COC(=O)Nc1ccc(-c2nc(C(Cc3ccccc3)C(=O)N3CCCC4(C3)OC(=O)Nc3ccc(Cl)c(F)c34)[nH]c2Cl)cc1 (single isomer, unassigned) [Example 126B] displays pKi of 6.81

====

I'd be grateful if you could share measured Ki for these entries.
Biological target: human Factor XIa (Homo sapiens (Human))
Experiment: Factor XIa Assay
Type: biochemical
Conditions: purified human Factor XIa 40 pM, Z-Gly-Pro-Arg-AFC 100 μM, pH 7.4; read-out: FXIa Ki
Answers are plain numbers, in nM.

{"COMPOUND": "COC(=O)Nc1ccc(C(=O)N[C@@H](CC(=O)N2CC3CCCC32)C(=O)N2CCC[C@@]3(C2)OC(=O)Nc2ccc(Cl)cc23)cc1 (stereo partly shown) [Example 94]", "OUTPUT UNIT": "nM", "Ki": 5.47}

Parameter requested: Ki. Apply to each item below.
1. COC(=O)Nc1ccc(C(=O)N[C@@H](Cc2cc(C3CC3)no2)C(=O)N2CC[C@@]3(C2)OC(=O)Nc2ccc(Cl)cc23)cc1 [Example 84]
2. COC(=O)Nc1ccc(-c2c[nH]c([C@@H](Cc3ccccc3)C(=O)N3CC[C@@]4(C3)OC(=O)Nc3ccc(Cl)cc34)n2)cc1 [Example 122a]
3. COC(=O)Nc1ccc(C(=O)NC(Cc2cc[nH]n2)C(=O)N2CCC3(C2)OC(=O)Nc2ccc(Cl)cc23)cc1 (racemic) [Example 28]
4. COC(=O)Nc1ccc(C(=O)N[C@@H](CC(=O)NC2COC2)C(=O)N2CC[C@@]3(C2)OC(=O)Nc2ccc(Cl)cc23)cc1 [Example 93]
5. COC(=O)Nc1ccc(C(=O)N[C@@H](Cc2ccccc2)C(=O)N2CCC[C@@]3(C2)OC(=O)Nc2ccc(C)cc23)cc1 [Example 15]
6. COC(=O)Nc1ccc(C(=O)N[C@@H](Cc2ccccc2)C(=O)N2CCC[C@@]3(C2)OC(=O)Nc2ccc(F)cc23)cc1 [Example 8a]
7. COCC[C@H](NC(=O)c1ccc(NC(=O)OC)cc1)C(=O)N1CCC[C@@]2(C1)OC(=O)Nc1ccc(Cl)cc12 [Example 37]
8. COC(=O)Nc1ccc(C(=O)N[C@@H](Cc2ccc(F)c(F)c2)C(=O)N2CCC3(C2)OC(=O)Nc2ccc(Cl)cc23)cc1 (stereo partly shown) [Example 27]

1: 28.1; 2: 33.6; 3: 63.7; 4: 45.8; 5: 5.5; 6: 12.8; 7: 9.21; 8: 14.3
